B1: EEHEE_rd4_0363 (parent)
chain: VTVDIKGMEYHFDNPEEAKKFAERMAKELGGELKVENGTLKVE

Variants of: B1
test: folding stability dG (cDNA display proteolysis); higher = more stable
recorded_conditions: PBS, room temperature
The label depends only on folding stability dG: y if it is at least 1 kcal/mol, n if it is smaller.

> print(dat)
    mutant.code  label.value
 1         T39Q            y
 2          G7T            n
 3         V35R            y
 4          T2P            n
 5         L29R            n
 6         P15K            y
 7         E28M            y
 8         A26T            y
 9         E43I            y
10         F21E            n
11          K6W            y
